The origin of these recorded values is patent US20250027068.

- Study System: pooled human IgG (human IgG1,2,3 and 4)
Enzyme Activity Endpoint Assay (purified): scIgG values by entry
Numbers only; they are read as ng/µL.

Q: Returns the measured Enzyme Activity Endpoint Assay (purified): scIgG for the input protein. Input: PRT-361 (protein) MSQTEDSESLQRLRDIEDFQAEKKKQNVVYTKWLDGVDVKDHDFRKIVDGNSAYYATPLLNGRGFYDINKDFNRDSDKCAAAVAANMFHYWLDRNRDNVDRFLRQNPEKHGIIELPDGQLKLSDFLNTYESDDGYRDKSKLFDFISENFNGPVWTDKLLDNYINGYAYNYKYGRTIEDPTKNTSKINFFKEVFNEKILTNNHSIRNQNEFSVLLIEALYTGKAIGLSYGPAGLRHSLGHIISVWGADLDADGNVVAIYVTDSDDKKLTIGDERVGLKRYKISTDDEGRLRLTAYEETHNTGGQIRGLWTLDTGKQAWADYFDKTEQTGTDQAEQ
A: 753

Q: Subsequent entry: PRT-295 (protein) MVTSVWTKGVTPPADFTQGEDVFHAPYDANQGWYDITKTFNGKDDLLCGAATAGNMLHWWFDQNKEYIEAYLKKHPEKQKIMFGDQELLDVRKAINTKGSQKNSELFNYFRDKAFPNLSARRLGVMPDLVLDMFINGYYLNVTKTQTTDVNRTYQEKDKRGGIFDAVFTRGDQSKLLTSRHDFKEKGLKEISDLIKQELTEGKALGLSHTYANVRISHVINLWGADFDSDGNLKAIYVTDSDSNASIGMKKYFVGVNSSGKVAISAKEIKEDNIGAQVLGLFTLSTGQDIWNQTN
A: 0
